system: Proteasome subunit beta type-9 (Homo sapiens)
Sequence (P28065 whole entry): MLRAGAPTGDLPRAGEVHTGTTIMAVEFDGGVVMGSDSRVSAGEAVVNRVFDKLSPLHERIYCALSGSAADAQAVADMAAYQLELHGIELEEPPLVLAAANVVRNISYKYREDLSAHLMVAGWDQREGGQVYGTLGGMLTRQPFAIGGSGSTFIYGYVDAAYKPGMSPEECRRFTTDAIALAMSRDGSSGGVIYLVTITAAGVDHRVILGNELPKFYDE
protocolDescription: Inhibition of LMP2 in human 20S immunoproteasome using Ac-PAL-AMC as substrate after 1 hr by fluorescence based microplate reader analysis
metric: pIC50
Interpret pIC50 as the negative base-10 log of the concentration measured in mol/L.

Record excerpt, results attached:
Sample CC(=O)NCC(=O)N1C[C@H](F)C[C@H]1C(=O)N[C@@H](Cc1ccccc1)C(=O)N[C@@H](CC(C)C)C(=O)[C@@]1(C)CO1 — what was its pIC50?
6.82

Sample CC(=O)NCC(=O)N1CC[C@H]1C(=O)N[C@@H](Cc1ccccc1)C(=O)N[C@@H](CC(C)C)C(=O)[C@@]1(C)CO1 — what was its pIC50?
7.00

Sample CC(=O)NCC(=O)N1CCC[C@H]1C(=O)N[C@@H](Cc1ccc(NC(=O)CN2CCOCC2)cc1)C(=O)N[C@@H](CC(C)C)C(=O)[C@@]1(C)CO1 — what was its pIC50?
7.04

Below: the item to evaluate.
Sample COc1cnc(C(=O)NCC(=O)N2CCC[C@H]2C(=O)N[C@@H](Cc2ccccc2)C(=O)N[C@@H](CC(C)C)C(=O)[C@@]2(C)CO2)cn1 — what was its pIC50?
6.95
